conditions: in methanol, 298.15 K
observed.property: solubility (mole fraction)
Please respond with just the number, no unit label.

In: What value of solubility (mole fraction) has been reported for the following molecule? Nc1ccnc(=O)[nH]1
Out: 0.000897

---

conditions: in sec-butanol, 318.15 K
observed.property: solubility (mole fraction)

In: If you can, please state the reported solubility (mole fraction) value of Nc1ccnc(=O)[nH]1 .
Out: 0.000279

---

settings: in n-hexanol, 303.15 K
observed.property: solubility (mole fraction)

In: Report solubility (mole fraction) for Nc1ccnc(=O)[nH]1 please.
Out: 0.000187

---

conditions: in n-butanol, 303.15 K
observed.property: solubility (mole fraction)
No unit in the answer, only the number.

In: Given Nc1ccnc(=O)[nH]1 , state its recorded solubility (mole fraction).
Out: 0.000241

---

settings: in isobutanol, 328.15 K
observed.property: solubility (mole fraction)
Please give the numeric answer without any surrounding text.

In: Bench note: what solubility (mole fraction) did Nc1ccnc(=O)[nH]1 show?
Out: 0.000394

---

settings: in DMSO, 298.15 K
observed.property: solubility (mole fraction)
Answer using only a numeral; do not append any unit.

In: # query: solubility (mole fraction) of entry Nc1ccnc(=O)[nH]1
Out: 0.0105

---

settings: in DMSO, 308.15 K
observed.property: solubility (mole fraction)
Enter the number alone.

In: What value of solubility (mole fraction) has been recorded for this entry: Nc1ccnc(=O)[nH]1
Out: 0.012

---

conditions: in n-propanol, 293.15 K
observed.property: solubility (mole fraction)
Number, no unit, nothing else.

In: State the recorded solubility (mole fraction) for this entry: Nc1ccnc(=O)[nH]1
Out: 0.000235

---

settings: in n-octanol, 298.15 K
observed.property: solubility (mole fraction)
Reply briefly: the number, and no unit.

In: Using the record for Nc1ccnc(=O)[nH]1 , report its solubility (mole fraction).
Out: 0.00012

---

details: in water, 323.15 K
observed.property: solubility (mole fraction)
Answer using only a numeral; do not append any unit.

In: What does the data say about its solubility (mole fraction)? Entry: Nc1ccnc(=O)[nH]1
Out: 0.00337

---

settings: in isopentanol, 288.15 K
observed.property: solubility (mole fraction)
Write no unit; give the number alone.

In: Reported solubility (mole fraction), compound Nc1ccnc(=O)[nH]1 : ____
Out: 0.000201

---

settings: in n-octanol, 323.15 K
observed.property: solubility (mole fraction)

In: Entry under review: Nc1ccnc(=O)[nH]1 . Reported solubility (mole fraction)?
Out: 0.000266

---

conditions: in tert-butanol, 328.15 K
observed.property: solubility (mole fraction)
Hey, just send me the number, nothing else.

In: I am curious: what solubility (mole fraction) value has been reported for Nc1ccnc(=O)[nH]1 ?
Out: 0.00118

---

details: in water, 328.15 K
observed.property: solubility (mole fraction)

In: Would you mind telling me what solubility (mole fraction) value was observed for Nc1ccnc(=O)[nH]1 ?
Out: 0.00397

---

details: in ethanol, 313.15 K
observed.property: solubility (mole fraction)
The answer should be written as a number, with no unit following it.

In: Any idea what solubility (mole fraction) was measured for Nc1ccnc(=O)[nH]1 ?
Out: 0.000497

---

details: in tert-butanol, 303.15 K
observed.property: solubility (mole fraction)
Write the number on its own, no unit after it.

In: Which value of solubility (mole fraction) has been reported for Nc1ccnc(=O)[nH]1 in the records?
Out: 0.000269
